FYI, the data here is from patent US20250002507A1.

Molecular target: Human M4 (Homo sapiens)
Construct: expressed in transfected cells
Sequence (P08173 whole entry): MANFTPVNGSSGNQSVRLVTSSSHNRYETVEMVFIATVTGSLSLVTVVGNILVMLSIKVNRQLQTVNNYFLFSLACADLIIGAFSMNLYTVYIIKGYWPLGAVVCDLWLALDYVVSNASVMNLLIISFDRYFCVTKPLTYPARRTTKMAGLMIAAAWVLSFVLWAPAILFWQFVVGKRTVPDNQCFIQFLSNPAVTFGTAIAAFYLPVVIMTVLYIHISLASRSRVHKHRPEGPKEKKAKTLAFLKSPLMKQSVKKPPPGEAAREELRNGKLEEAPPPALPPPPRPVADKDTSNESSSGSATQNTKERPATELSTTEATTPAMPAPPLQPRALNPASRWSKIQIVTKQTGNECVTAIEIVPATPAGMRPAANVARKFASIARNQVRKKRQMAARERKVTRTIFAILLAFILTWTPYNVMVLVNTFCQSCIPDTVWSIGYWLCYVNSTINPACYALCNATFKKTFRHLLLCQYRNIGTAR
Assay: mAChR M4 cell-based functional assay (calcium flux, potentiation of EC20 acetylcholine response), hM4-Gqi5 CHO-K1 cells
Details: CHO-K1; % ACh maximum at 30 μM; human M4; read-out: Emax
Property: Emax at 30 µM; scope: individual compounds

- Compound: "Cc1cc2nncn2nc1N1CCc2ncc(-c3c(C)cnn3C)cc2C1 [Compound 135]"
  Assayed system: "Human M4 (Homo sapiens)"
  Unit name: "%"
  Emax at 30 µM: 81
- Compound: "Cc1cc2nccn2nc1N1CCc2ncc(-c3ccn(C)n3)cc2C1 [Compound 111]"
  Assayed system: "Human M4 (Homo sapiens)"
  Unit name: "%"
  Emax at 30 µM: 69
- Compound: "Cc1c(N2CCc3ncc(-c4ccc(C5CC5)nc4)cc3C2)nn2cnnc2c1C [Compound 38]"
  Assayed system: "Human M4 (Homo sapiens)"
  Unit name: "%"
  Emax at 30 µM: 90
- Compound: "Cc1c(N2CCc3ncc(-c4cnn(CC(C)C)c4)cc3C2)nn2cnnc2c1C [Compound 146]"
  Assayed system: "Human M4 (Homo sapiens)"
  Unit name: "%"
  Emax at 30 µM: 107
- Compound: "CCn1ccc(-c2cnc3c(c2)CN(c2nn4cnnc4cc2C)CC3)n1 [Compound 130]"
  Assayed system: "Human M4 (Homo sapiens)"
  Unit name: "%"
  Emax at 30 µM: 93
- Compound: "Cc1c(N2CCc3ncc(-c4cnn(CC(F)(F)F)c4)cc3C2)nn2cnnc2c1C [Compound 98]"
  Assayed system: "Human M4 (Homo sapiens)"
  Unit name: "%"
  Emax at 30 µM: 102
- Compound: "Cc1ccc(Nc2cnc3c(c2)CN(c2nn4cnnc4c(C)c2C)CC3)c(F)c1 [Compound 48]"
  Assayed system: "Human M4 (Homo sapiens)"
  Unit name: "%"
  Emax at 30 µM: 80
- Compound: "Cc1c(N2CCc3ncc(Nc4ccccc4N(C)C)cc3C2)nn2cnnc2c1C [Compound 51]"
  Assayed system: "Human M4 (Homo sapiens)"
  Unit name: "%"
  Emax at 30 µM: 67
- Compound: "Cc1noc(C)c1-c1cnc2c(c1)CN(c1nn3c(C(F)(F)F)nnc3c(C)c1C)CC2 [Compound 92]"
  Assayed system: "Human M4 (Homo sapiens)"
  Unit name: "%"
  Emax at 30 µM: 79
- Compound: "Cc1c(N2CCc3ncc(-c4cnn(C5CCCCC5)c4)cc3C2)nn2cnnc2c1C [Compound 20]"
  Assayed system: "Human M4 (Homo sapiens)"
  Unit name: "%"
  Emax at 30 µM: 71
- Compound: "Cc1c(N2CCc3ncc(-c4cncs4)cc3C2)nn2c(C(F)(F)F)nnc2c1C [Compound 96]"
  Assayed system: "Human M4 (Homo sapiens)"
  Unit name: "%"
  Emax at 30 µM: 97
- Compound: "Cc1cc2nncn2nc1N1CCc2ncc(-c3cncs3)cc2C1 [Compound 103]"
  Assayed system: "Human M4 (Homo sapiens)"
  Unit name: "%"
  Emax at 30 µM: 97
- Compound: "COc1ccccc1Nc1cnc2c(c1)CN(c1nn3cnnc3c(C)c1C)CC2 [Compound 54]"
  Assayed system: "Human M4 (Homo sapiens)"
  Unit name: "%"
  Emax at 30 µM: 90
- Compound: "Cc1c(N2CCc3ncc(C(=O)NC(C)c4nccs4)cc3C2)nn2cnnc2c1C (stereo not shown) [Compound 124]"
  Assayed system: "Human M4 (Homo sapiens)"
  Unit name: "%"
  Emax at 30 µM: 63
- Compound: "Cc1c(N2CCc3ncc(Oc4ccc(F)cc4)cc3C2)nn2cnnc2c1C [Compound 4]"
  Assayed system: "Human M4 (Homo sapiens)"
  Unit name: "%"
  Emax at 30 µM: 87
- Compound: "COc1ccc(Oc2cnc3c(c2)CN(c2nn4cnnc4c(C)c2C)CC3)cc1 [Compound 12]"
  Assayed system: "Human M4 (Homo sapiens)"
  Unit name: "%"
  Emax at 30 µM: 76
